Data provenance is paper PMC9250534.

- measured.on: MDM2 (Homo sapiens)
- experimental.protocol: MDM2 binding screen: displacement of fluorescent p53 peptide probe FP53 (fluorescence polarization)
- test.parameters: Acid 91; initial screen; crude macrocycle reactions
readout.name: fraction fluorescent probe displaced, Screen

molecule	meas.value
O=C1CCSSCCNC(=O)C2CN(C(=O)C=Cc3ccccc3)CCN2C(=O)C2CCCN(C2)C(=O)C(Cc2ccccc2)N1 (stereo not drawn) [X F B4 D7 Acid 91]	0.0563

(P) O=C(C=Cc1ccccc1)NC1CC2C(=O)N3CCCC3C(=O)NCCSSCCC(=O)NC(Cc3c[nH]c4ccccc34)C(=O)N2C1 (stereo not drawn) [X W D5 B1 Acid 91]
(Q) O=C1CCSSCCNC(=O)[C@H]2CCCN(C2)C(=O)[C@H](Cc2c[nH]c3ccccc23)NC(=O)C2(CCN(C(=O)/C=C/c3ccccc3)CC2)N1 [X D6 W B4 Acid 91]
Identify the entry with the smaller fraction fluorescent probe displaced, Screen: P or Q . Reply with the label of the item you choose. P
(P: 0.08, Q: 0.14)

###

- measured.on: thrombin (Homo sapiens, UniProt P00734)
- Construct: consists of two polypeptide chains of 36 (light chain) and 259 amino acid
- experimental.protocol: Determination of Kis of purified thrombin inhibitors (IC50, Cheng-Prusoff)
- Assay type: biochemical
- test.parameters: read-out: Ki thrombin
readout.name: pKi
Quick note: pKi means taking -log10 of the concentration in moles per liter.

Tell me the measured pKi of NC(=O)c1ccc(Cl)s1 [5-chlorothiophene-2-carboxamide, reference compound] , please. 3.42

###

- measured.on: MDM2 (Homo sapiens, UniProt Q00987)
- Sequence (Q00987 whole entry): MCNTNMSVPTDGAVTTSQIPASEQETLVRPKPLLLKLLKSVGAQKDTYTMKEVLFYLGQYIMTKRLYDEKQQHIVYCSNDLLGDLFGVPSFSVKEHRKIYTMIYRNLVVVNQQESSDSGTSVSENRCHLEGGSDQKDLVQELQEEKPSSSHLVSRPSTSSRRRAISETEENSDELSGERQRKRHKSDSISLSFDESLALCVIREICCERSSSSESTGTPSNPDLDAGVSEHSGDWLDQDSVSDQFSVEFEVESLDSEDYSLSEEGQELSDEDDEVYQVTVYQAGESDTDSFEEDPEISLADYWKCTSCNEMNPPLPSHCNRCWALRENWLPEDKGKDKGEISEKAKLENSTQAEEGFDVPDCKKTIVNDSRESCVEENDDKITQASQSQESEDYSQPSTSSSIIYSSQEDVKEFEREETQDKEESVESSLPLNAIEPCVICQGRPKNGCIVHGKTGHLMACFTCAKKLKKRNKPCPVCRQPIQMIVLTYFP
- experimental.protocol: MDM2 binding screen: displacement of fluorescent p53 peptide probe FP53 (fluorescence polarization)
- test.parameters: Acid 25; initial screen; crude macrocycle reactions
Numbered stars: 1 amine (or outer) side, 2 acyl side, 3 side chain; on linkers, the order of the positions; unused ones are H or OH. Bridge positions count the residues as written; N and C are the ends. Square brackets hold non-standard residues; d marks the D form. Peptide text beside a SMILES is read from it. * marks the point of attachment. Benzoyl(4-Cl) = O=C(c1ccc(Cl)cc1)*; Cysteamide = C(CS[*:3])N[*:1]; Api = NC1(C(=O)O)CCNCC1; Mpa = O=C(O)CCS
readout.name: fraction fluorescent probe displaced, Screen

Some solved cases for reference:
molecule	meas.value
O=C1CCSSCCNC(=O)[C@H](CNC(=O)c2ccc(Cl)cc2)NC(=O)[C@H](Cc2c[nH]c3ccccc23)NC(=O)c2cccc(c2)CN1 [X B5 W D3 Acid 25]	0.15
O=C(NC1CC2C(=O)NC(Cc3ccccc3)C(=O)N3CCCC(C3)C(=O)NCCSSCCC(=O)N2C1)c1ccc(Cl)cc1 (stereo not drawn) [X D5 F B4 Acid 25]	0.0244
O=C1CCSSCCNC(=O)C(CNC(=O)c2ccc(Cl)cc2)NC(=O)C2CCCN(C2)C(=O)C(Cc2ccccc2)N1 (stereo not drawn) [X F B4 D3 Acid 25]	0.12
O=C1CCSSCCNC(=O)C2CN(C(=O)c3ccc(Cl)cc3)CCN2C(=O)c2cccc(c2)CNC(=O)C(Cc2c[nH]c3ccccc23)N1 (stereo not drawn) [X W B5 D7 Acid 25]	0.0244
O=C1CCSSCCNC(=O)C(Cc2ccccc2)NC(=O)C2CC(NC(=O)c3ccc(Cl)cc3)CN2C(=O)c2cccc(c2)CN1 (stereo not drawn) [X B5 D5 F Acid 25]	0.13
O=C1CCSSCCNC(=O)[C@@H]2CCCN2C(=O)C2(CCN(C(=O)c3ccc(Cl)cc3)CC2)NC(=O)[C@H](Cc2ccccc2)N1 [X F D6 B1 Acid 25] ([Mpa]F[Api](Benzoyl(4-Cl))P-Cysteamide; disulfide 1-C)	0.0244
O=C1CCNC(=O)C2(CCN(C(=O)c3ccc(Cl)cc3)CC2)NC(=O)CCSSCCNC(=O)[C@H](Cc2ccccc2)N1 [X D6 B2 F Acid 25]	0.0244

(a) O=C1CCSSCCNC(=O)C2CN(C(=O)c3ccc(Cl)cc3)CCN2C(=O)C(Cc2ccccc2)NC(=O)CCN1 (mixture of isomers) [X B2 F D7 Acid 25]
(b) O=C1CCSSCCNC(=O)[C@@H]2C[C@H](NC(=O)c3ccc(Cl)cc3)CN2C(=O)c2cccc(c2)CNC(=O)[C@H](Cc2ccccc2)N1 [X F B5 D5 Acid 25]
(c) O=C1CCSSCCNC(=O)C(Cc2ccccc2)NC(=O)C2CC(NC(=O)c3ccc(Cl)cc3)CN2C(=O)CCN1 (stereo not drawn) [X B2 D5 F Acid 25]
(d) O=C1NCCSSCCC(=O)N2CCCC2C(=O)N2CCN(C(=O)c3ccc(Cl)cc3)CC2C(=O)NC1Cc1c[nH]c2ccccc12 (stereo not drawn) [X B1 D7 W Acid 25]
(e) O=C1NC2(CCN(C(=O)c3ccc(Cl)cc3)CC2)C(=O)N[C@@H](Cc2c[nH]c3ccccc23)C(=O)NCCSSCCC(=O)N2CCC[C@H]1C2 [X B4 D6 W Acid 25]
List these items ordered by fraction fluorescent probe displaced, Screen, big to small. Hello, could you send the labels back in the order asked? Thank you. e, c, d, b, a
(e: 0.38, c: 0.16, d: 0.09, b: 0.0244, a: -0.07)

###

- measured.on: UniProt:Q00987
- experimental.protocol: MDM2 binding screen: displacement of fluorescent p53 peptide probe FP53 (fluorescence polarization)
- test.parameters: Acid 14; replicate; crude macrocycle reactions
Numbered stars: 1 amine (or outer) side, 2 acyl side, 3 side chain; on linkers, the order of the positions; unused ones are H or OH. Bridge positions count the residues as written; N and C are the ends. Square brackets hold non-standard residues; d marks the D form. Peptide text beside a SMILES is read from it. * marks the point of attachment. ξ: configuration not given here. ξPro(4-NHCO(5-Cl-2-thienyl)) = O=C(NC1CNC(C(=O)O)C1)c1ccc(Cl)s1; 2Thenoyl(5-Cl) = O=C(c1ccc(Cl)s1)*; Cysteamide = C(CS[*:3])N[*:1]; Dap = NC[C@H](N)C(=O)O; Mpa = O=C(O)CCS
readout.name: fraction fluorescent probe displaced, Replicate
// return a plain number; no unit text

molecule	measured.on	meas.value
O=C(NC1CC2C(=O)NCCSSCCC(=O)N3CCCC3C(=O)NC(Cc3ccccc3)C(=O)N2C1)c1ccc(Cl)s1 (centres unmarked) [X B1 F D5 Acid 14] ([Mpa]PF[ξPro(4-NHCO(5-Cl-2-thienyl))]-Cysteamide; disulfide 1-C; configuration not given here)	UniProt:Q00987	0.07

Now look at this entry.
What value of fraction fluorescent probe displaced, Replicate has been reported for the following molecule? O=C1CCSSCCNC(=O)[C@@H]2CCCN2C(=O)[C@H](CNC(=O)c2ccc(Cl)s2)NC(=O)[C@H](Cc2c[nH]c3ccccc23)N1 [X W D3 B1 Acid 14] ([Mpa]W[Dap](2Thenoyl(5-Cl))P-Cysteamide; disulfide 1-C) 0.28

###

- measured.on: thrombin (Homo sapiens, UniProt P00734)
- Construct: consists of two polypeptide chains of 36 (light chain) and 259 amino acid
- experimental.protocol: Thrombin inhibition screen of crude macrocycle reactions (residual thrombin activity, fluorogenic substrate Z-Gly-Gly-Arg-AMC)
- Assay type: biochemical
- test.parameters: 10 µM macrocycle concentration; macrocycles containing acid 14; crude reaction; replicate reaction and screen
Numbered stars: 1 amine (or outer) side, 2 acyl side, 3 side chain; on linkers, the order of the positions; unused ones are H or OH. Bridge positions count the residues as written; N and C are the ends. Square brackets hold non-standard residues; d marks the D form. Peptide text beside a SMILES is read from it. * marks the point of attachment. 2Thenoyl(5-Cl) = O=C(c1ccc(Cl)s1)*; Cysteamide = C(CS[*:3])N[*:1]; Api = NC1(C(=O)O)CCNCC1; Mpa = O=C(O)CCS
readout.name: % thrombin activity, Repeat screen (%)

molecule	% thrombin activity, Repeat screen (%)
CC[C@H](C)[C@@H]1NC(=O)CNC(=O)CCNC(=O)[C@@H](NC(=O)c2ccc(Cl)s2)CSSCCNC1=O [C B2 G I]	114.7
O=C1CCSSCCNC(=O)[C@H](Cc2c[nH]cn2)NC(=O)C2(CC2)CNC(=O)C2(CCN(C(=O)c3ccc(Cl)s3)CC2)N1 [X D6 B6 H]	96.5

(a) O=C1CCSSCCNC(=O)C2(CCN(C(=O)c3ccc(Cl)s3)CC2)NC(=O)[C@@H]2CCCN2C(=O)[C@@H](CO)N1 [X s B1 D6] ([Mpa][dS]P[Api](2Thenoyl(5-Cl))-Cysteamide; disulfide 1-C)
(b) O=C1CCSSCCNC(=O)[C@H](CNC(=O)c2ccc(Cl)s2)NC(=O)[C@H](Cc2ccc(O)cc2)NC(=O)C2(CC2)CN1 [X B6 Y D3]
Given the listed items, does a or b have the lesser reported % thrombin activity, Repeat screen? Identify your pick by its label. b

###

- measured.on: MDM2 (Homo sapiens, UniProt Q00987)
- experimental.protocol: MDM2 binding screen: displacement of fluorescent p53 peptide probe FP53 (fluorescence polarization)
- test.parameters: 10 µM macrocycle concentration; crude acylated macrocycle (scaffold Mpa-AA1-AA2-AA3 x carboxylic acid); p53-based fluorescent peptide, human MDM2
- Experimental: We screened Library 2 in 384-microwell plates by dispensing the target protein MDM2 and reporter peptide into the wells containing the macrocycle reactions. The products were screened for displacement of a p53-based fluorescent peptide from human MDM2. […] For each macrocycle, the MDM2 binding was measured once. One fluorescence anisotropy reading was taken with a Tecan Infinite F200 Pro fluorescence plate reader (excitation at 485 nm, emission at 535 nm) at 25 °C. […]
Numbered stars: 1 amine (or outer) side, 2 acyl side, 3 side chain; on linkers, the order of the positions; unused ones are H or OH. Bridge positions count the residues as written; N and C are the ends. Square brackets hold non-standard residues; d marks the D form. Peptide text beside a SMILES is read from it. * marks the point of attachment. Benzoyl(3-OH) = O=C(c1cccc(O)c1)*; Cysteamide = C(CS[*:3])N[*:1]; X3 = O=C(Cc1c[nH]c2ccccc12)*; Dap = NC[C@H](N)C(=O)O; Bz = O=C(c1ccccc1)*; Mpa = O=C(O)CCS
readout.name: fraction fluorescent probe displaced

compound	readout.name	meas.value
O=C(NC[C@@H]1NC(=O)[C@@H]2CCCN2C(=O)CCSSCCNC(=O)[C@H](Cc2c[nH]c3ccccc23)NC1=O)c1cccc(O)c1 [X-B1-D3-W + A27] ([Mpa]P[Dap](Benzoyl(3-OH))W-Cysteamide; disulfide 1-C)	fraction fluorescent probe displaced	0.1229

(a) O=C(NC[C@@H]1NC(=O)[C@@H]2CCCN2C(=O)CCSSCCNC(=O)[C@H](Cc2ccccc2)NC1=O)c1ccccc1 [X-B1-D3-F + A1] ([Mpa]P[Dap](Bz)F-Cysteamide; disulfide 1-C)
(b) O=C(Cc1c[nH]c2ccccc12)NC[C@@H]1NC(=O)[C@@H]2CCCN2C(=O)CCSSCCNC(=O)[C@H](Cc2c[nH]c3ccccc23)NC1=O [X-B1-D3-W + A12] ([Mpa]P[Dap](X3)W-Cysteamide; disulfide 1-C)
(c) CC(C)=CCCC(C)CC(=O)NCC1NC(=O)C2CCCN2C(=O)CCSSCCNC(=O)C(Cc2c[nH]c3ccccc23)NC1=O (mixture of isomers)
hey, can you rank those compounds up there by fraction fluorescent probe displaced? biggest number first please Answer format: the labels, ordered as requested. b, c, a
